- System: CCRF-CEM leukemia
- test-method-notes: NCI-60 one-dose screen, 48 h
- experimental-setup: 10 µM unless noted
Compounds without any hit were thinned out: in the full panel of roughly 83,000, 20% have a hit. The source made the active and inactive calls. Rule for the calls: active = growth percent below 10; inactive = the rest.
Outcomes: 1 (active), -1 (inactive)

>>> label("COc1ccc(OC)c(Nc2nnc(-c3ccc(O)c(OC)c3)o2)c1")
-1
>>> label("CN(C)CCNC(=O)c1cc2c3cc(Cl)ccc3[nH]c2c2ncccc12")
1
>>> label("CCCC/C=C/[C@@H]1C[C@H]1CCO")
-1
>>> label("C#COc1cccc(Nc2c(C#N)cnc3ncc(NC(=O)CCl)cc23)c1")
1
>>> label("CCN1CCN(C(=O)[C@]23CCC(C)(C)C[C@@H]2C2=CC[C@@H]4[C@@]5(C)CCC(=O)C(C)(C)[C@@H]5CC[C@@]4(C)[C@]2(C)CC3)CC1")
-1
>>> label("Cc1cc(N2CCCCC2)cc(C)c1-c1csc(NC(=O)c2ccncc2)n1")
-1
>>> label("Cc1c[n+](Cc2ccc3ccccc3c2)cn1Cc1ccc2ccccc2c1")
1
>>> label("CC(=O)Oc1ccc(C)cc1C")
-1
>>> label("CCOc1ccccc1Cn1ccnc1CCc1c(Cl)c(O)cc(O)c1C(=O)OC")
-1
>>> label("O=C(N(c1ccccc1)c1ccccc1)n1cc(I)c2nc(Cl)nc(Cl)c21")
1
>>> label("CC(C)(C)CC(C)(C)NC(=O)Nc1ncccc1OCc1ccccc1")
-1
>>> label("Fc1cccc(Oc2ccc(Nc3ncnc4ccc(OCCCN5CCOCC5)cc34)cc2Cl)c1")
-1
>>> label("O=S(=O)(Nc1ccc(Cl)c(C(F)(F)F)c1)c1ccc(-c2cnc(C3CC3)o2)cc1")
1
>>> label("O=C(N/N=C/c1c(Cl)cccc1Cl)c1cccnc1Nc1cccc(C(F)(F)F)c1")
-1
>>> label("O=S(=O)(NCCNc1nccc(-c2c(-c3ccc(F)c(O)c3)nc3occn23)n1)c1ccc(Cl)cc1")
-1
>>> label("O=C(Nc1ccc(Oc2cccc(Cl)c2)c(Cl)c1)c1cnccn1")
-1
>>> label("O=C(NCCNc1nccc(Nc2ccc(S(=O)(=O)Nc3ccccn3)cc2)n1)c1cccc([N+](=O)[O-])c1")
-1
>>> label("NC(N)=NCCCCCNc1noc(Cc2c[nH]c3cc(Br)ccc23)n1")
-1
>>> label("CC(C)(Sc1cc(C(C)(C)C)c(O)c(C(C)(C)C)c1)Sc1cc(C(C)(C)C)c(OC(=O)CCCC(=O)O)c(C(C)(C)C)c1")
-1
>>> label("N#CSc1c[nH]c2cccc(/C=C/C(=O)/C=C(/C=C/c3cccc4[nH]cc(SC#N)c34)OB(F)F)c12")
1
>>> label("C#CCNC(=O)[C@H](CC)[C@H]1CC[C@H](C)[C@H]([C@@H](C)[C@H](O)[C@H](C)C(=O)[C@H](CC)C2O[C@]3(C=CC(=O)[C@]4(CC[C@@](C)([C@H]5CC[C@](O)(CC)[C@H](C)O5)O4)O3)[C@H](C)C[C@@H]2C)O1 (stereo partly drawn)")
-1
>>> label("CC1CCN(CCOc2ccc(CNc3ccc4nc(CCC5CCCCC5)[nH]c4c3)cc2)CC1")
-1
>>> label("Cc1ccc(NC(=O)Cn2cc(CN3CCN(c4ccnc5cc(Cl)ccc45)CC3)nn2)cc1")
1
>>> label("CCN1C(=S)N(c2ccccc2)C2NC(=S)N(/N=C/C=C/c3ccccc3OC)C21 (stereo not drawn)")
1
>>> label("CCOC(=O)Cc1cnc(N/N=C(\\C)c2cc3ccccc3o2)s1")
-1
>>> label("O=C(/C=C/c1cccs1)Nc1ncc(Cc2ccccc2F)s1")
-1
>>> label("Oc1c(Br)cc(Br)c2ccc(Cn3cc(-c4ccccc4C(F)(F)F)nn3)nc12")
-1
>>> label("COc1cc(/C=C/C(=O)c2ccc(F)cc2)ccc1OCCCCOc1ccc(/C=C/C(=O)c2c(C)nc3ccccc3c2C)cc1OC")
-1
>>> label("O=C(Nc1cccc2ccccc12)NC1CC1")
-1
>>> label("Nc1[nH]n2cc(-c3ccccc3)nc2c1N=Nc1ccc(S(N)(=O)=O)cc1")
-1
>>> label("CCC(=C(c1ccc(OCCN2CCCCC2)cc1)c1ccc(OCCN2CCCCC2)cc1)c1ccc(Cl)cc1")
1
>>> label("CC(C)c1ccc(C(=O)Nc2sc3c(c2C(N)=O)CCC(=O)C3)cc1")
1
>>> label("CC(=O)N1N=C(c2ccc(C(F)(F)F)c(F)c2)CC1c1[nH]c(C)c(C(=O)NCC(F)(F)F)c1C (stereo not drawn)")
-1
>>> label("CCOC(=O)c1cc2c(n1Cc1cc(OC)c(OC)c(OC)c1)-c1nc(N)sc1CCC2")
-1
>>> label("O=C(OC(CO)C(=O)NC12CC3CC(CC(C3)C1)C2)c1ccc(Cl)cc1 (stereo not drawn)")
-1
>>> label("CCOC(=O)C(=O)C(C(=O)OCC)c1ccccc1 (stereo not drawn)")
-1
>>> label("C=CC[Se]C(=O)Cc1c(C)n(C(=O)c2ccc(Cl)cc2)c2ccc(OC)cc12")
-1
>>> label("COc1ccc(NC2=C(I)C(=O)c3ncccc3C2=O)cc1")
-1
